All values here come from paper PMC7327383.

- STUDY_TARGET: human α1A-adrenoceptor (Homo sapiens, UniProt P35348)
- Construct: CHO cells stably expressing either the full‐length human α1A, α1B, or α1D‐adrenoceptor
- Sequence (P35348 whole entry): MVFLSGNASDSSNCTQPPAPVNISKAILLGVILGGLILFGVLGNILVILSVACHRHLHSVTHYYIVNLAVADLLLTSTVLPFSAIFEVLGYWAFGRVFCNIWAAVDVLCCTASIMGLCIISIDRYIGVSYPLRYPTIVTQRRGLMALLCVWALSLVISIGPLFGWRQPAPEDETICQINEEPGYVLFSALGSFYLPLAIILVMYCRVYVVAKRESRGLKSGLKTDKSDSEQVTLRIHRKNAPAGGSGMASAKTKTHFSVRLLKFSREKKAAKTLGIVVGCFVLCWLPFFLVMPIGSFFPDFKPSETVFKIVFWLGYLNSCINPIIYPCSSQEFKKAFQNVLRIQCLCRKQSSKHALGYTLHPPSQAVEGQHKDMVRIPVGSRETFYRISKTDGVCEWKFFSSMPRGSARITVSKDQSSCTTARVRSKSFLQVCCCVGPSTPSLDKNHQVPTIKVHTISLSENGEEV
- ASSAY_SUMMARY: [3H]prazosin whole-cell competition binding, CHO-α1A cells
- ASSAY_CONTEXT: single-component inhibition curve; given as log KD (negative); mean ± SE mean; read-out: Log KD α1A (converted)
READOUT_NAME: Kd (nM)
Response body: numeric value in nM, unit text excluded.

Reference set (3 entries):
COMPOUND: COc1cc2nc(N3CCN(C(=O)c4ccco4)[C@H]4CCCC[C@H]43)nc(N)c2cc1OC (racemic)
Kd (nM): 1.29
//
COMPOUND: O=C1NCN(c2ccccc2)C12CCN(CC1COc3ccccc3O1)CC2 (stereo not drawn)
Kd (nM): 138
//
COMPOUND: OCCN1CCN(CCC=C2c3ccccc3Sc3ccc(C(F)(F)F)cc32)CC1
Kd (nM): 4.47

Write down the reported Kd of CN(CCCN1c2ccccc2CCc2ccccc21)CC(=O)c1ccc(Cl)cc1 , test system: human α1A-adrenoceptor (Homo sapiens, UniProt P35348).
115

Thanks! And CN(C)CCCN1c2ccccc2CCc2ccccc21 ?
33.9

Thanks! And CN[C@H]1CC[C@@H](c2ccc(Cl)c(Cl)c2)c2ccccc21 ?
1910

Thanks! And COc1ccccc1N1CCN(CCCNc2cc(=O)n(C)c(=O)n2C)CC1 ?
61.7

Thanks! And Cc1nc2n(c(=O)c1CCN1CCC(c3noc4cc(F)ccc34)CC1)CCCC2O (stereo not drawn) ?
4.37

Thanks! And CC(C)NCC(O)COc1cccc2[nH]c3ccccc3c12 (stereo not drawn) ?
269

----------
Each record here notes measured Log KD α1B.
- STUDY_TARGET: human α1B-adrenoceptor (Homo sapiens)
- Construct: CHO cells stably expressing either the full‐length human α1A, α1B, or α1D‐adrenoceptor
- Sequence (P35368 whole entry): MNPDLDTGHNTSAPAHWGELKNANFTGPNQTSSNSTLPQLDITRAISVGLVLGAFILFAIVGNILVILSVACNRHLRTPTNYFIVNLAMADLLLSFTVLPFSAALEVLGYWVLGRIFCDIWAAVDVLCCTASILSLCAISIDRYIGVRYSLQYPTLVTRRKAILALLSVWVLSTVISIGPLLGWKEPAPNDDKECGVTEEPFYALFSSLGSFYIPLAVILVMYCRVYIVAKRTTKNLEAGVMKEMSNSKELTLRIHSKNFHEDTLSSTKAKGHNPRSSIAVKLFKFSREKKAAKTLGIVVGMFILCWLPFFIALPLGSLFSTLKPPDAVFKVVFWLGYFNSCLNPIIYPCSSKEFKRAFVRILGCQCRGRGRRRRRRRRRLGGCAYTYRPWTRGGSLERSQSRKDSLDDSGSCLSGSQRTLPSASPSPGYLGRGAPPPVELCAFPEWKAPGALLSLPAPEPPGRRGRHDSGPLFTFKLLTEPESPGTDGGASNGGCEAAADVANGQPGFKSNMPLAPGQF
- ASSAY_SUMMARY: [3H]prazosin whole-cell competition binding, CHO-α1B cells
- ASSAY_CONTEXT: log KD from 3H-prazosin whole cell binding, CHO cells; mean ± s.e.mean
Answer using only a numeral; do not append any unit.

Reference set (4 entries):
COMPOUND: O=C1Nc2ccccc2C2=NC(CN3CCN(c4ccccc4)CC3)CN12 (centres unmarked) [2-PMDQ]
Log KD α1B: -6.95
//
COMPOUND: COc1ccccc1N1CCN(CC2CN3C(=O)N(C)c4ccccc4C3=N2)CC1 (centres unmarked) [2-MPMDQ]
Log KD α1B: -7.37
//
COMPOUND: COc1ccccc1N1CCN(CCn2c(=O)[nH]c3c([nH]c4ccccc43)c2=O)CC1 [3-MPPI]
Log KD α1B: -8.59
//
COMPOUND: CN1CC[C@]2(CCN3CCc4c(oc5ccccc45)[C@@H]3C2)N(C)C1=O.Cl [MK-912]
Log KD α1B: -5.46

Here's the next entry for you.
GET /values?readout=Log KD α1B&item= COC1(C2=NCCN2)COc2ccccc2O1 (centres unmarked) [RX 821002]
-5.46

----------
Each record here notes measured selectivity α1A vs α1B.
- STUDY_TARGET: human α1A-adrenoceptor (Homo sapiens)
- Construct: CHO cells stably expressing either the full‐length human α1A, α1B, or α1D‐adrenoceptor
- ASSAY_SUMMARY: [3H]prazosin whole-cell competition binding, CHO-α1A cells
- ASSAY_CONTEXT: ratio; 1 = no selectivity for a subtype over another
Answer using only a numeral; do not append any unit.

Reference set (2 entries):
MOLECULE: CC(C)(Cc1c[nH]c2ccccc12)NCC(O)COc1ccccc1C#N (stereo not shown) [Bucindolol]
selectivity α1A vs α1B: 13
--
MOLECULE: COC1(C2=NCCN2)COc2ccccc2O1 (stereo not shown) [RX 821002]
selectivity α1A vs α1B: 11

Here's the next entry for you.
Write down the reported selectivity α1A vs α1B of COc1cccc2c1CCC[C@H]2CN(C)CCc1ccc2ccoc2c1.CS(=O)(=O)O [A80426] , test system: human α1A-adrenoceptor (Homo sapiens).
3.1
